These data points were gathered from patent US7348427B2.

System: Enterococcus faecium (ATCC 51559, a vancomycin resistant strain (VRE))
Experiment: MIC, NCCLS broth microdilution assay
Assay type: cell-based
Conditions: D = E. faecium ATCC 51559
Source text: In vitro biological activity data were collected for a variety of microorganisms, including Bacillus cereus (ATCC 11778), Staphylococcus aureus (ATCC 27660, a methicillin resistant strain (MRSA); ATCC 13709, a methicillin sensitive strain (MSSA)); Streptococcus pneumoniae (ATCC 51422, a penicillin resistant strain (PRSP)), Enterococcus faecium (ATCC 51559, a vancomycin resistant strain (VRE)), and Staphylococcus epidermidis (ATCC 12228). […]
measure: Minimum Inhibitory Concentration (MIC)

Cc1cc(NC(=O)c2cc(NC(=O)c3cc(NC(=O)c4ccc(Cl)cc4F)c[nH]3)cn2CCN2CCCC2)sn1    +++ (+++ = MIC ≦ 4)
Cn1cc(NC(=O)c2cc(NC(=O)c3ccc(Cl)cc3F)c[nH]2)cc1C(=O)Nc1cc(C(=O)NCCN2CCCCC2)n(CCCO)c1    +++ (+++ = MIC ≦ 4)
CCN(CC)CCNC(=O)c1cc(NC(=O)c2cc(NC(=O)c3cc(NC(=O)c4ccc(Cl)cc4F)c[nH]3)cn2C)cn1C    +++ (+++ = MIC ≦ 4)

* * *

Test system: E. faecalis ATCC 29212
Experiment: MIC, NCCLS broth microdilution assay
Type: cell-based, Enterococcus faecalis
Settings: C = E. faecalis ATCC 29212
measure: Minimum Inhibitory Concentration (MIC)

Some entries whose results are on file:
CCSCCCn1cc(NC(=O)c2cc(NC(=O)c3ccc(Cl)cc3SCC)cn2C)cc1C(=O)Nc1cc(C(=O)Nc2cc(C(=O)NCCN3CCOCC3)n(C)c2)n(C)c1    >32 µg/mL
Cn1cc(NC(=O)c2cc(NC(=O)c3cc(NC(=O)c4ccc(Cl)cc4F)cn3C)cn2C)cc1C(=O)NCCN1CCOCC1    +++ (+++ = MIC ≦ 4)
Cn1cc(NC(=O)c2cc(NC(=O)c3ccc(Cl)cc3F)c[nH]2)cc1C(=O)NCCN1CCCCC1    +++ (+++ = MIC ≦ 4)
Cc1cc(NC(=O)c2cc(NC(=O)c3cc(NC(=O)c4ccc(Cl)cc4F)c[nH]3)cn2CCN2CCCC2)sn1    +++ (+++ = MIC ≦ 4)

Query: Give a short answer stating reported Minimum Inhibitory Concentration (MIC) for Cn1cc(NC(=O)c2cc(NC(=O)c3cc(NC(=O)c4cc(NC(=O)c5ccc(F)cc5)cn4C)cn3C)cn2C)cc1C(=O)NCCN1CCOCC1 .
Reply: +++ (+++ = MIC ≦ 4)

Query: Read the entry Cn1cc(NC(=O)c2ccc(F)cc2F)cc1C(=O)Nc1cc(C(=O)Nc2cc(C(=O)NCCN3CCCCC3)n(CCN3CCCCC3)c2)n(C)c1 and write its reported Minimum Inhibitory Concentration (MIC).
Reply: +++ (+++ = MIC ≦ 4)
